experiment: Solubility of the solid-state forms in organic solvents; format: physicochemical; conditions: organic solvent or mixture; acetone, room temperature (approximately 22° C.); read-out: solubility in acetone
assay_metric: solubility

IN: Tell me the measured solubility of CS(=O)(=O)CC(=O)N1CC2(C1)OCc1cc(C3=NO[C@@](c4cc(Cl)c(F)c(Cl)c4)(C(F)(F)F)C3)ccc12 [Form A] , please.
OUT: > 300 mg/mL
